Target: (NVDP)3(NANP)2 (Plasmodium falciparum)
Experiment: SPR, antibody on chip
Documented pKd across a set of binders
The value called pKd is obtained by taking minus log10 of the concentration in mol/L.

INSERT INTO assay_data (binder, measured_endpoint, numeric_value) VALUES
  ('AB-007051 (antibody, V domains shown) VH: QMQLVESGGGVVQPGRSLRLSCTASGFTFSTYAMHWVRQSPGQGLQWVAVISYHSRNKYYEDSVRGRFTISRDNSKNTLYLQMNSLRAEDTAVYYCARDGYSSSFFDFWGQGTLVTVSS VL: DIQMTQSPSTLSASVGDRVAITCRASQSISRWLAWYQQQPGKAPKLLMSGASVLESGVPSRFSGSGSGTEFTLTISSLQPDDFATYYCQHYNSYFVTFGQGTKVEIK', 'pKd', 5.60),
  ('AB-007036 (antibody, V domains shown) VH: QMQLVESGGGVVQPGRSLRLSCTASGFTFSTYAMHWVRQSPGQGLQWVAVISYDSTNKYYEDSVRGRFTISRDNSKNTLYLQMNSLRAEDTAVYYCARDGYSSSFFDFWGQGTLVTVSS VL: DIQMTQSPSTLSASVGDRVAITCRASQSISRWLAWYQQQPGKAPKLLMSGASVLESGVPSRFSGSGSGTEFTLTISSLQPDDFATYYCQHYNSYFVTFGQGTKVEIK', 'pKd', 4.78);

Here's the next entry for you.
Dear colleague, I am looking for the recorded pKd of the following binder: AB-007073 (antibody, V domains shown) VH: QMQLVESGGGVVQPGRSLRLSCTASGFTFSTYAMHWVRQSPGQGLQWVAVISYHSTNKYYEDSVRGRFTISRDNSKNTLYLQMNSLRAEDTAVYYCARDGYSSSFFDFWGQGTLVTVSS VL: DIQMTQSPSTLSASVGDRVAITCRASQSISRWLAWYQQQPGKAPKLLMSGASVLESGVPSRFSGSGSGTEFTLTISSLQPDDFATYYCQHYNSHFVTFGQGTKVEIK 4.71
